System: Saccharomyces cerevisiae
method_summary: protein stability index of tFT-peptide fusion (C-terminal peptide) (PSI (0-1 scale)); higher = more stable (slower turnover);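 further: PSI is a weighted mean of sequencing reads over stability bins, variants kept only with over 10 reads, mCherry proximal and sfGFP distal, peptide attached via GGGS linker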
recorded_conditions: genetic background: cdc34-1; temperature: 37 C
property_measured: protein stability index

{"seq": "SLLFLVLFFPLV", "property_measured": "protein stability index", "reading": 0.489}
{"seq": "FFVEFFLLCFCS", "property_measured": "protein stability index", "reading": 0.497}
{"seq": "AYPAHQLLVSCL", "property_measured": "protein stability index", "reading": 0.509}
{"seq": "CFYSRTIILEHC", "property_measured": "protein stability index", "reading": 0.503}

====

Tested on: Saccharomyces cerevisiae
method_summary: protein stability index of tFT-peptide fusion (C-terminal peptide) (PSI (0-1 scale)); higher = more stable (slower turnover)
recorded_conditions: genetic background: wild type; temperature: 30 C

{"seq": "SLIFLLVLILSL", "protein stability index": 0.363}
{"seq": "ISIFTCLGRFSL", "protein stability index": 0.677}
{"seq": "THCWQVLPCGLI", "protein stability index": 0.723}
{"seq": "ASCGTAGPCVPF", "protein stability index": 0.708}
{"seq": "LRMWFGLMRPDA", "protein stability index": 0.66}
{"seq": "SISIGVRHSRPP", "protein stability index": 0.609}
{"seq": "GLAVLSWLYIEL", "protein stability index": 0.487}
{"seq": "ARQPMHYRITGC", "protein stability index": 0.644}
{"seq": "SPPLLHLSNSRH", "protein stability index": 0.654}
{"seq": "KGTKIGRPVRVI", "protein stability index": 0.689}
{"seq": "RLKFCLSICLAP", "protein stability index": 0.732}
{"seq": "ERVGLISSRRGC", "protein stability index": 0.696}
{"seq": "SWYSLVWTSSER", "protein stability index": 0.695}
{"seq": "WVCCVGAGFLVV", "protein stability index": 0.594}
{"seq": "STLVIPFPPFHF", "protein stability index": 0.7}
{"seq": "VITAYHSLTYGA", "protein stability index": 0.688}
{"seq": "PRCVRFPPVTLL", "protein stability index": 0.739}
{"seq": "YLPSTAHSAHPP", "protein stability index": 0.737}
{"seq": "PPPHLPPPPPTQ", "protein stability index": 0.658}
{"seq": "NKDEVHRRRGRI", "protein stability index": 0.718}
{"seq": "PQPLNTLRLTSS", "protein stability index": 0.671}
{"seq": "KENKKKNKKYKK", "protein stability index": 0.785}
{"seq": "IFFFQFLWFCLS", "protein stability index": 0.315}
{"seq": "AGGPGWGALVGA", "protein stability index": 0.645}
{"seq": "PSLTLPPSPRFP", "protein stability index": 0.758}
{"seq": "VLWLPPSPTPNL", "protein stability index": 0.721}
{"seq": "AHSPPTRISPTH", "protein stability index": 0.75}
{"seq": "ASLTPFFLCSIF", "protein stability index": 0.649}
{"seq": "LETETKKPQNQK", "protein stability index": 0.724}

====

Tested on: Saccharomyces cerevisiae
method_summary: protein stability index of tFT-peptide fusion (C-terminal peptide) (PSI (0-1 scale)); higher = more stable (slower turnover)
recorded_conditions: genetic background: das1 deletion; temperature: 37 C
Response key: met means protein stability index >= 0.6; not met means protein stability index < 0.6.

{"seq": "FILLFGFSHWVW", "study_system": "Saccharomyces cerevisiae", "assigned_label": "not met"}
{"seq": "CIIAVMISIVSF", "study_system": "Saccharomyces cerevisiae", "assigned_label": "not met"}
{"seq": "LLLFLHSTLTCR", "study_system": "Saccharomyces cerevisiae", "assigned_label": "met"}
{"seq": "VRRGAVWCCLCG", "study_system": "Saccharomyces cerevisiae", "assigned_label": "met"}
{"seq": "IREYSIRIKRLQ", "study_system": "Saccharomyces cerevisiae", "assigned_label": "met"}
{"seq": "GFFFLFFVSAFI", "study_system": "Saccharomyces cerevisiae", "assigned_label": "not met"}
{"seq": "SFPPLPPLPLPP", "study_system": "Saccharomyces cerevisiae", "assigned_label": "met"}
{"seq": "VVVLLLVVWFCL", "study_system": "Saccharomyces cerevisiae", "assigned_label": "not met"}
{"seq": "DRLRSGLSLLLA", "study_system": "Saccharomyces cerevisiae", "assigned_label": "met"}
{"seq": "FFCSILLGIILL", "study_system": "Saccharomyces cerevisiae", "assigned_label": "not met"}
{"seq": "CFGIFWLFARLK", "study_system": "Saccharomyces cerevisiae", "assigned_label": "not met"}
{"seq": "CCMLCVVAWSGV", "study_system": "Saccharomyces cerevisiae", "assigned_label": "not met"}
{"seq": "VVFLWRCRLLLG", "study_system": "Saccharomyces cerevisiae", "assigned_label": "not met"}
{"seq": "LHLTFRLAVLYY", "study_system": "Saccharomyces cerevisiae", "assigned_label": "not met"}
{"seq": "GLCFRVCIWVFV", "study_system": "Saccharomyces cerevisiae", "assigned_label": "not met"}
{"seq": "LCWRLCRFWWVG", "study_system": "Saccharomyces cerevisiae", "assigned_label": "met"}
{"seq": "VCMVLCRWRGLG", "study_system": "Saccharomyces cerevisiae", "assigned_label": "met"}
{"seq": "ELTYVYRTALIA", "study_system": "Saccharomyces cerevisiae", "assigned_label": "not met"}
{"seq": "CIFLLMAILSLA", "study_system": "Saccharomyces cerevisiae", "assigned_label": "not met"}
{"seq": "TLCHLTLICVRE", "study_system": "Saccharomyces cerevisiae", "assigned_label": "not met"}
{"seq": "SSLLLLCCLLVG", "study_system": "Saccharomyces cerevisiae", "assigned_label": "not met"}
{"seq": "IIPAFPFAFLAF", "study_system": "Saccharomyces cerevisiae", "assigned_label": "not met"}
{"seq": "LLGGFAAFWRIL", "study_system": "Saccharomyces cerevisiae", "assigned_label": "met"}
{"seq": "FLIFGMVDFAVV", "study_system": "Saccharomyces cerevisiae", "assigned_label": "not met"}
{"seq": "RFLACSIRYLVY", "study_system": "Saccharomyces cerevisiae", "assigned_label": "not met"}
{"seq": "CREFLQSMLFYC", "study_system": "Saccharomyces cerevisiae", "assigned_label": "met"}
{"seq": "LFFLPPCYWFLL", "study_system": "Saccharomyces cerevisiae", "assigned_label": "met"}
{"seq": "YQFDGLVFLRLS", "study_system": "Saccharomyces cerevisiae", "assigned_label": "met"}
{"seq": "CSFPTFRSLLLL", "study_system": "Saccharomyces cerevisiae", "assigned_label": "met"}
{"seq": "VVLVGVAVCRLG", "study_system": "Saccharomyces cerevisiae", "assigned_label": "not met"}
{"seq": "IKERRKVSMKVY", "study_system": "Saccharomyces cerevisiae", "assigned_label": "met"}
{"seq": "FLFIFFFFLISF", "study_system": "Saccharomyces cerevisiae", "assigned_label": "not met"}
{"seq": "GGFRVLLWCVVW", "study_system": "Saccharomyces cerevisiae", "assigned_label": "not met"}
{"seq": "PPPPPPPAPASP", "study_system": "Saccharomyces cerevisiae", "assigned_label": "met"}
{"seq": "SPGFVLLAVLVI", "study_system": "Saccharomyces cerevisiae", "assigned_label": "not met"}
{"seq": "PTFSPSLPPPRS", "study_system": "Saccharomyces cerevisiae", "assigned_label": "met"}
{"seq": "VFFLSFIFRFFL", "study_system": "Saccharomyces cerevisiae", "assigned_label": "not met"}
{"seq": "FLSVGFSCSFVC", "study_system": "Saccharomyces cerevisiae", "assigned_label": "met"}
{"seq": "RWRRWCVVLFVV", "study_system": "Saccharomyces cerevisiae", "assigned_label": "not met"}
{"seq": "FRYLRPAFLLLH", "study_system": "Saccharomyces cerevisiae", "assigned_label": "not met"}
{"seq": "LLLSLLVLRFFL", "study_system": "Saccharomyces cerevisiae", "assigned_label": "not met"}
{"seq": "EMSIISVLRVIS", "study_system": "Saccharomyces cerevisiae", "assigned_label": "met"}
{"seq": "RISYKTKINELI", "study_system": "Saccharomyces cerevisiae", "assigned_label": "met"}
{"seq": "KRSPPPATPSSG", "study_system": "Saccharomyces cerevisiae", "assigned_label": "met"}
{"seq": "VRICVVLRVCWW", "study_system": "Saccharomyces cerevisiae", "assigned_label": "not met"}
{"seq": "SRFFSSSFYRLC", "study_system": "Saccharomyces cerevisiae", "assigned_label": "met"}
{"seq": "LFRFSRLFLFVL", "study_system": "Saccharomyces cerevisiae", "assigned_label": "met"}
{"seq": "CVLSWSLFVVVW", "study_system": "Saccharomyces cerevisiae", "assigned_label": "not met"}
{"seq": "CVFFCVLVCFLS", "study_system": "Saccharomyces cerevisiae", "assigned_label": "not met"}
{"seq": "PFYQSGGLVVVV", "study_system": "Saccharomyces cerevisiae", "assigned_label": "met"}
{"seq": "CLLLILCFLCVR", "study_system": "Saccharomyces cerevisiae", "assigned_label": "not met"}
{"seq": "VVVWLFRIKSNV", "study_system": "Saccharomyces cerevisiae", "assigned_label": "not met"}
{"seq": "RCIRRWPYILKL", "study_system": "Saccharomyces cerevisiae", "assigned_label": "met"}
{"seq": "RLDAPGLSRTEN", "study_system": "Saccharomyces cerevisiae", "assigned_label": "met"}
{"seq": "SVVVLHVHVRPP", "study_system": "Saccharomyces cerevisiae", "assigned_label": "met"}
{"seq": "YLCCFSVAFFLG", "study_system": "Saccharomyces cerevisiae", "assigned_label": "not met"}
{"seq": "GFISKLIIKLAA", "study_system": "Saccharomyces cerevisiae", "assigned_label": "not met"}
{"seq": "RVPCCLSFVPVC", "study_system": "Saccharomyces cerevisiae", "assigned_label": "not met"}
{"seq": "ASVSVWCVSVVV", "study_system": "Saccharomyces cerevisiae", "assigned_label": "not met"}
{"seq": "RLLLLLTCIIYI", "study_system": "Saccharomyces cerevisiae", "assigned_label": "not met"}
